B1: Azoarcus group I ribozyme (parent)
chain: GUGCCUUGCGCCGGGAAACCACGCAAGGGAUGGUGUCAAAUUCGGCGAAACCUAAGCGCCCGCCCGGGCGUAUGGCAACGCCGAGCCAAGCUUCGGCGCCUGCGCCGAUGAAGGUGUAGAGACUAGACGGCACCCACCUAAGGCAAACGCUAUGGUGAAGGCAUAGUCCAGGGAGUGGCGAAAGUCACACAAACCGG

Variants of: B1
Assay: reverse-splicing fitness (ratio to wild type); higher = more active; in vitro selection; Mg2+ level not given
Label 1 (yes) when reverse-splicing fitness is at or above 0.02; anything below gets 0 (no).

Task item: I'd appreciate it if you could say whether C82A A111C A120U A145C C150G C169G U176G has reverse-splicing fitness at least equal to 0.02.
Reply: 0 (no)

Task item: I'd appreciate it if you could say whether C82U A111U A145C C150A C169G U176A has reverse-splicing fitness at least equal to 0.02.
Reply: 1 (yes)

Task item: I'd appreciate it if you could say whether A111U A120G A145U C169G U176A has reverse-splicing fitness at least equal to 0.02.
Reply: 1 (yes)

Task item: I'd appreciate it if you could say whether C82G A111C A120U A145U C169U U176G has reverse-splicing fitness at least equal to 0.02.
Reply: 0 (no)

Task item: I'd appreciate it if you could say whether C82G A111C A120G A145C C150A U176C has reverse-splicing fitness at least equal to 0.02.
Reply: 0 (no)

Task item: I'd appreciate it if you could say whether C82G A111C A120G A145G C150U C169U U176C has reverse-splicing fitness at least equal to 0.02.
Reply: 0 (no)

Task item: I'd appreciate it if you could say whether C82G A111U C150A U176A has reverse-splicing fitness at least equal to 0.02.
Reply: 1 (yes)

Task item: I'd appreciate it if you could say whether C82U A120G A145U C150U U176C has reverse-splicing fitness at least equal to 0.02.
Reply: 0 (no)

Task item: I'd appreciate it if you could say whether C82U A120G A145G C150G C169A U176C has reverse-splicing fitness at least equal to 0.02.
Reply: 0 (no)

Task item: I'd appreciate it if you could say whether C82A A120U A145G C150G C169A U176A has reverse-splicing fitness at least equal to 0.02.
Reply: 0 (no)

Task item: I'd appreciate it if you could say whether C82A A111U A120U A145C C150A C169U has reverse-splicing fitness at least equal to 0.02.
Reply: 0 (no)

Task item: I'd appreciate it if you could say whether C82A A120C A145U C150A C169G U176G has reverse-splicing fitness at least equal to 0.02.
Reply: 0 (no)

Task item: I'd appreciate it if you could say whether C82G A111C A145U C150A C169A U176A has reverse-splicing fitness at least equal to 0.02.
Reply: 0 (no)

Task item: I'd appreciate it if you could say whether C82G A111U C150G U176C has reverse-splicing fitness at least equal to 0.02.
Reply: 1 (yes)

Task item: I'd appreciate it if you could say whether C82U A111C A120U A145G C169U has reverse-splicing fitness at least equal to 0.02.
Reply: 0 (no)

Task item: I'd appreciate it if you could say whether A120U C150G C169A U176A has reverse-splicing fitness at least equal to 0.02.
Reply: 0 (no)

Task item: I'd appreciate it if you could say whether C82G A111G A145C C150U U176C has reverse-splicing fitness at least equal to 0.02.
Reply: 1 (yes)

Task item: I'd appreciate it if you could say whether C82U A111G A120G A145G C150U U176G has reverse-splicing fitness at least equal to 0.02.
Reply: 0 (no)

Task item: I'd appreciate it if you could say whether C82U A111G C150U C169A has reverse-splicing fitness at least equal to 0.02.
Reply: 0 (no)

Task item: I'd appreciate it if you could say whether A120C A145G C150U C169A U176A has reverse-splicing fitness at least equal to 0.02.
Reply: 0 (no)

Task item: I'd appreciate it if you could say whether A111U A120G A145G C150A C169U U176C has reverse-splicing fitness at least equal to 0.02.
Reply: 1 (yes)

Task item: I'd appreciate it if you could say whether C82U A111C A120C A145C has reverse-splicing fitness at least equal to 0.02.
Reply: 1 (yes)
